experiment: yeast display, Sf9 membrane polyspecificity reagent, FACS + sequencing; frameworks hold sequencing errors
readout: polyreactivity (PSR sort gate)

QVQLVESGGGLVQAGGSLRLSCAASGSIFGWNTMGWYRQAPGKERELVASISRRGGSTHYADSVKGRFTISRDNAKNTVYLQMNSLKPEDTAVYYCAKVRYQGNGGYYWGQGTQVTVSS    high polyreactivity
QVQLVESGGGLVQAGGSLRLSCAASGITLYANAMGWYREAPGKERELVAVISKGSGSTYYPDSVKGRFTISRDNAKNTVYLQMNSLKPEDTAVYYCAAGRKGSMYYWGQGTQVTVSS    high polyreactivity

* * *

assay: yeast display, Sf9 membrane polyspecificity reagent, FACS + sequencing; frameworks hold sequencing errors
readout: polyreactivity (PSR sort gate)

QVQLVESGGGLVQAGGSLRLSCAASGITFYPYAMGWYRQAPGKERELVASISWSGGSTYYADSVKGRFTISRDNAKNTVYLQMNSLKPEDTAVFYCNAEYWLPYYPDYDYWGQGTQVTVSS    low polyreactivity
QVQLVESGGGLVQAGGSLRLSCAASGLIFYKYAMGWYRQAPGKERELVASISTGGGSTYYADSVKGRFTISRDNAKNTVYLQMNSLKPEDTAVYYCAARWWSRFRGSHSLYDYWGQGTQVTVSS    high polyreactivity
QVQLVESGGGLVQAGGSLRLSCAASGRIGRYAMGWYRQAPGKERELVAVITSGDSTYYADSVKGRFTISRDNAKNTVYLQMNSLTPEDTAVYYCAADSYRRWGNLFTGNEYDSWGQGTQVTVSS    low polyreactivity
QVQHVESGGGLVQAGGSLRLSCAASGIIIKFYAMGWYRKAPVKERELVATITFSSGTTYYADSVKGRFTMSRDNAKTTVYFQMNSLKPEDTAVYYCAASTLPAWPYDGPAGPRYDYWGQGTQVTVSS    low polyreactivity
QVQLVESGGGLVQAGGSLRLICAASGSTNYRYAMGWYRQAPGKERELVATISSTGARTNYADSVKGRFTISRDNAKNTDYLQMNSLKPEDTAVYYCAASAPYIYYWGQGTQVTVSS    high polyreactivity
QVQLVESGGGLVQAGGSLRLSCAASGNTFIYYAMGWYRQAPGKERELVAAISRSGGSTYYADSVKGRFTISRDNAKNTVYLQMNSLKPEDTAVYYCAAEATKWIGVVTMDYWGQGTQVTVSS    high polyreactivity
QVQLVESGGGLVQAGGSLRLSCAASGFTFGLYAMGWYRQAPGKERELVAAISSDGSTYYTDSVKGRFTISRDNAKNTVYLQMNSLKPEDTSVYYCNRDYPQSLPYYTNTILYGYWGQGTQVTVSS    low polyreactivity
QVQLVESGGGLVQAGGSLRLSCAASGSTFWPNAMGWYRQAPGKERELVAAITGGGGTNYADSVKGRFTISRDNAKNTVYLQMNSLKPEDTAVYYCAAKKVNSRSHVKYYYWGQGTQVSVSS    high polyreactivity
QVQLVESGGGLVQAGGSLRLSCAASGSIFFYYAMGWYRQAPGKERELVATITSGGSTSYADSVKGRFTISRDNAKNTVYLQMNSLKPEDTAVYYCAARKVTKSTYNYWGQGTQVTVSS    low polyreactivity
QVQLVESGGGLVQAGGSLRLSCAASGRIFYRYAMGWYRQAPGKERELVASITGRGGRTYYADSVKGRFTISRDNAKNSVYLHMNSLKPEDTEVYYCAADWGVHRPPYDSWGQGTQVTVSS    high polyreactivity
QVQRVESGGGLFQAGGSLRLSCAASGFIFASYTMGWYRQAPGKERELVAAISRAGSTYYADSVKGRFTITRDNAKNTVYFQMNSLKPEDTAVYYCNAVSWRTSRYDYWGQGTQVTVSS    high polyreactivity
